The measurements presented in this section are drawn from the supplement of paper PMC10567573.

I'd appreciate it if you could supply protein stability index values for the items below.
B1: VAMP4 (parent)
chain: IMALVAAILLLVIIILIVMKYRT

- Variants of: B1
- ASSAY_PROCEDURE: protein stability index of a GFP-peptide fusion (GPS, HEK-293T) (PSI 1-6); higher = more stable;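 also: lentivirally expressed fusions sorted by FACS into six bins by GFP to DsRed ratio, PSI derived from sequencing read proportions per bin multiplied by bin number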
- MEASUREMENT_PARAMETERS: c terminus: native
Provide a numeric answer; units are not to be included.

Reported protein stability index, variant L9R : ____
1.95

Likewise for I17A ?
3.54

Likewise for K20M ?
3.62

Likewise for L11W ?
2.84

Likewise for I8T ?
3.25

Likewise for V12L ?
3.23

Likewise for A3I ?
3.5

Likewise for V18R ?
1.27

Likewise for R22L ?
3.4

Likewise for V12I ?
3.64

Likewise for A7E ?
1.62

Likewise for L4F ?
3.69

Likewise for I15V ?
3.25

Likewise for L10C ?
2.84

Likewise for V12N ?
2.48

Likewise for A3G ?
3.17

Likewise for M2N ?
1.93

Likewise for A7F ?
3.74

Likewise for L4S ?
3.29

Likewise for L10W ?
2.78

Likewise for A7Y ?
2.94

Likewise for L16N ?
2.73

Likewise for V12K ?
2.06

Likewise for Y21Q ?
2.99

Likewise for T23K ?
2.31

Likewise for I14L ?
3.19

Likewise for L16G ?
3.18

Likewise for V5P ?
2.36

Likewise for I17M ?
3.45

Likewise for I14F ?
3.48

Likewise for L9P ?
2.43

Likewise for A3Y ?
3.55

Likewise for L16Q ?
3.13

Likewise for A6V ?
3.23

Likewise for L9I ?
3.36

Likewise for L11C ?
3.27

Likewise for R22T ?
3.93

Likewise for I15W ?
1.84

Likewise for M19L ?
3.68

Likewise for I13M ?
3.97

Likewise for R22W ?
4.25

Likewise for M2D ?
2.98

Likewise for A6H ?
2.06

Likewise for A3E ?
2.2

Likewise for I14D ?
1.5

Likewise for A6I ?
3.61

Likewise for K20R ?
3.15

Likewise for V18I ?
3.54

Likewise for A6T ?
3.43

Likewise for L11A ?
3.51

Likewise for V18L ?
3.26

Likewise for V12Q ?
2.54

Likewise for V5G ?
3.37

Likewise for I13H ?
2.94

Likewise for L10H ?
2.46

Likewise for L11I ?
3.33

Likewise for L9K ?
2.5

Likewise for M2E ?
2.4

Likewise for A3R ?
3.58

Likewise for L10Y ?
2.03

Likewise for Y21K ?
1.98

Likewise for K20V ?
4.06

Likewise for A6W ?
2.02

Likewise for I1T ?
3.53

Likewise for V18C ?
2.93

Likewise for I17E ?
2.57

Likewise for I14K ?
1.92

Likewise for K20W ?
4.14

Likewise for I13A ?
3.86

Likewise for V18M ?
3.39

Likewise for I15T ?
3.08

Likewise for L9V ?
3.3

Likewise for L10M ?
3.35

Likewise for V18S ?
2.56

Likewise for V5I ?
2.97

Likewise for L11P ?
3.43

Likewise for M2P ?
3.28

Likewise for V18D ?
2.85

Likewise for T23Q ?
3.1

Likewise for I8S ?
3.25

Likewise for T23H ?
3.48

Likewise for I13N ?
3.58

Likewise for V18A ?
2.6

Likewise for L4C ?
3.07

Likewise for K20I ?
3.75

Likewise for I8G ?
3.37

Likewise for L16A ?
3.57

Likewise for V18H ?
2.38

Likewise for K20G ?
3.37

Likewise for I15C ?
3.51

Likewise for I1H ?
3.39
